- TEST_DESCRIPTION: Minimum inhibitory concentration against Streptococcus pyogenes 930MLSB
- Assay type: functional
PROPERTY_NAME: log10 MIC (log10 of the value in µg/mL)
Field: value | Transform: log10 | Quantity: MIC | Unit: µg/mL

Before answering, review these 5 worked examples.
CC[C@H]1OC(=O)[C@H](C)C(=O)[C@H](C)[C@@H](O[C@@H]2O[C@H](C)C[C@H](N(C)C)[C@H]2O)[C@](C)(OC/C=C/c2ccc3nnccc3c2)C[C@@H](C)C(=O)[C@H](C)[C@H]2NC(=O)O[C@@]21C | 0.60
CC[C@H]1OC(=O)[C@H](C)C(=O)[C@H](C)[C@@H](O[C@@H]2O[C@H](C)C[C@H](N(C)C)[C@H]2O)[C@](C)(OCC2CC2c2cnc3ccccc3c2)C[C@@H](C)C(=O)[C@H](C)[C@H]2NC(=O)O[C@@]21C (some centres undefined) | 0.60
CC[C@H]1OC(=O)[C@H](C)C(=O)[C@H](C)[C@@H](O[C@@H]2O[C@H](C)C[C@H](N(C)C)[C@H]2O)[C@](C)(OC/C=C/c2ccc3ncncc3c2)C[C@@H](C)C(=O)[C@H](C)[C@H]2NC(=O)O[C@@]21C | 0.30
CC[C@H]1OC(=O)[C@H](C)C(=O)[C@H](C)[C@@H](O[C@@H]2O[C@H](C)C[C@H](N(C)C)[C@H]2O)[C@](C)(OC/C=C/c2cnc3ccccc3c2)C[C@@H](C)C(=O)[C@H](C)[C@@H](O)[C@]1(C)O | 2.00
CC[C@H]1OC(=O)[C@H](C)C(=O)[C@H](C)[C@@H](O[C@@H]2O[C@H](C)C[C@H](N(C)C)[C@H]2O)[C@](C)(OC/C=C/c2cnc3ccccc3c2)C[C@@H](C)C(=O)[C@H](C)[C@H]2N(N)C(=O)O[C@]12C | 1.81

Proceed to the following item.
q: Fill blank: measured log10 MIC of the molecule CC[C@H]1OC(=O)[C@H](C)C(=O)[C@H](C)[C@@H](O[C@@H]2O[C@H](C)C[C@H](N(C)C)[C@H]2O)[C@](C)(OC/C=C/c2cnc3ccccc3c2)C[C@@H](C)C2=NCCN3C(=O)O[C@@]1(C)[C@H]3[C@H]2C is ____.
a: 1.20

Provenance of the data: ChEMBL document CHEMBL1134286
